The reported numbers originate from the NIST ThermoML archive (doi:10.1016/j.jct.2011.10.023).

conditions: 338.15 K; 50000 kPa; Liquid; Vibrating tube method
readout_name: mass density (kg/m3)

Task item: Tell me its mass density given CCCCCCCCO [octan-1-ol] as the entry.
Reply: 825.9

Task item: Tell me its mass density given CCCCCCCO [heptan-1-ol] as the entry.
Reply: 823.4

Task item: Tell me its mass density given CCCCO [butan-1-ol] as the entry.
Reply: 812.4

Task item: Tell me its mass density given CCCO [propan-1-ol] as the entry.
Reply: 807

Task item: Tell me its mass density given CCCCCCCCCCCO [1-undecanol] as the entry.
Reply: 831

Task item: Tell me its mass density given CCO [ethanol] as the entry.
Reply: 794.1

Task item: Tell me its mass density given CCCCCCCCCCO [decan-1-ol] as the entry.
Reply: 829.4

Task item: Tell me its mass density given CCCCCO [pentan-1-ol] as the entry.
Reply: 816.6

Task item: Tell me its mass density given CCCCCCCCCO [nonan-1-ol] as the entry.
Reply: 827.6

Task item: Tell me its mass density given CCCCCCO [hexan-1-ol] as the entry.
Reply: 820.2

* * *

conditions: 358.15 K; 60000 kPa; Liquid; Vibrating tube method
readout_name: mass density (kg/m3)

Task item: Tell me its mass density given CCCCCCCO as the entry.
Reply: 816.9

Task item: Tell me its mass density given CCCCCCCCCO as the entry.
Reply: 821.2

Task item: Tell me its mass density given CCCCO as the entry.
Reply: 805.3

Task item: Tell me its mass density given CCCCCCCCO as the entry.
Reply: 819.6

Task item: Tell me its mass density given CCCCCCCCCCO as the entry.
Reply: 822.9

Task item: Tell me its mass density given CCO as the entry.
Reply: 786.7

Task item: Tell me its mass density given CCCCCCCCCCCO as the entry.
Reply: 824.9

Task item: Tell me its mass density given CCCO as the entry.
Reply: 799.6

Task item: Tell me its mass density given CCCCCCO as the entry.
Reply: 813.5

Task item: Tell me its mass density given CCCCCO as the entry.
Reply: 810

* * *

conditions: 328.15 K; 10000 kPa; Liquid; Vibrating tube method
readout_name: mass density (kg/m3)

Task item: Tell me its mass density given CCCCCCCCCCO as the entry.
Reply: 811.9

Task item: Tell me its mass density given CCCCCCCCCO as the entry.
Reply: 809.8

Task item: Tell me its mass density given CCCCCO as the entry.
Reply: 796.3

Task item: Tell me its mass density given CCCCCCCO as the entry.
Reply: 804.6

Task item: Tell me its mass density given CCCCO as the entry.
Reply: 790.9

Task item: Tell me its mass density given CCCCCCO as the entry.
Reply: 800.8

Task item: Tell me its mass density given CCCO as the entry.
Reply: 784.2

Task item: Tell me its mass density given CCCCCCCCCCCO as the entry.
Reply: 814.1

Task item: Tell me its mass density given CCO as the entry.
Reply: 768.8

Task item: Tell me its mass density given CCCCCCCCO as the entry.
Reply: 807.7

* * *

details: 278.15 K; 45000 kPa; Liquid; Vibrating tube method
readout_name: mass density (kg/m3)

Task item: Tell me its mass density given CCCCCCCCO as the entry.
Reply: 858.8

Task item: Tell me its mass density given CCCCCCCO as the entry.
Reply: 856.6

Task item: Tell me its mass density given CCCO as the entry.
Reply: 844.3

Task item: Tell me its mass density given CCCCCCO as the entry.
Reply: 853.9

Task item: Tell me its mass density given CCCCO as the entry.
Reply: 848.1

Task item: Tell me its mass density given CCCCCCCCCO as the entry.
Reply: 859.9

Task item: Tell me its mass density given CCO as the entry.
Reply: 833.3

Task item: Tell me its mass density given CCCCCO as the entry.
Reply: 851.1
